These data points were gathered from patent EP4647082A1.

Test: Phase I first-in-human study, pharmacokinetics after single ascending subcutaneous doses in healthy volunteers
Assay type: in vivo
Settings: human, plasma; single SC dose 16 mg; nominal time 3 h; mean; read-out: Plasma Concentration AXN-001
Bridge positions count the residues as written; N and C are the ends. Square brackets hold non-standard residues; d marks the D form. Peptide text beside a SMILES is read from it. * marks the point of attachment. Phe(2-CONH2) = NC(=O)c1ccccc1C[C@H](N)C(=O)O; Orn(iPr) = CC(C)NCCC[C@H](N)C(=O)O; Oxazole2carbonyl = O=C(c1ncco1)*; 3Pal = N[C@@H](Cc1cccnc1)C(=O)O
ASSAY_METRIC: level at 3 h (ng/mL)
Give bare numbers, in ng/mL.

Prompt line: What level at 3 h value was documented for this compound, CC(C)NCCC[C@@H]1NC(=O)[C@@H](NC(=O)[C@H](Cc2ccccc2C(N)=O)NC(=O)[C@H](NC(=O)c2ncco2)C(C)C)CSSC[C@@H](C(=O)N[C@@H](Cc2cccnc2)C(N)=O)NC(=O)[C@H](Cc2ccccc2)NC(=O)[C@@H]2CCCN2C(=O)CNC(=O)[C@H](C(C)C)NC(=O)[C@H](CC(=O)O)NC1=O [AXN-001] (Oxazole2carbonyl-[dV][Phe(2-CONH2)]C[Orn(iPr)]DVGPFC[3Pal]-NH2; disulfide 3-10) ?
Response line: 170

###

Assay: Phase I first-in-human study, pharmacokinetics after single ascending subcutaneous doses in healthy volunteers
Format: in vivo
Conditions: human, plasma; single SC dose 8 mg; nominal time 0.25 h; mean; read-out: Plasma Concentration AXN-001
Bridge positions count the residues as written; N and C are the ends. Square brackets hold non-standard residues; d marks the D form. Peptide text beside a SMILES is read from it. * marks the point of attachment. Phe(2-CONH2) = NC(=O)c1ccccc1C[C@H](N)C(=O)O; Orn(iPr) = CC(C)NCCC[C@H](N)C(=O)O; Oxazole2carbonyl = O=C(c1ncco1)*; 3Pal = N[C@@H](Cc1cccnc1)C(=O)O
ASSAY_METRIC: level at 0.25 h (ng/mL)
One number for each entry, in ng/mL.

Prompt line: What level at 0.25 h value was documented for this compound, CC(C)NCCC[C@@H]1NC(=O)[C@@H](NC(=O)[C@H](Cc2ccccc2C(N)=O)NC(=O)[C@H](NC(=O)c2ncco2)C(C)C)CSSC[C@@H](C(=O)N[C@@H](Cc2cccnc2)C(N)=O)NC(=O)[C@H](Cc2ccccc2)NC(=O)[C@@H]2CCCN2C(=O)CNC(=O)[C@H](C(C)C)NC(=O)[C@H](CC(=O)O)NC1=O [AXN-001] (Oxazole2carbonyl-[dV][Phe(2-CONH2)]C[Orn(iPr)]DVGPFC[3Pal]-NH2; disulfide 3-10) ?
Response line: 118
